Measured values drawn from patent US7767666B2 for this set.

Task for the reader: assign each of the following compounds its reported pA2.
biological target: human H3 receptor (Homo sapiens, UniProt Q9Y5N1); construct: expressed in transfected cells; assay: Cyclic AMP accumulation (β-galactosidase reporter); type: cell-based; settings: SK-N-MC cells expressing human H3 receptor and reporter; histamine agonist, forskolin 5 μM; Schild regression of pEC50 values
Sequence (Q9Y5N1 whole entry): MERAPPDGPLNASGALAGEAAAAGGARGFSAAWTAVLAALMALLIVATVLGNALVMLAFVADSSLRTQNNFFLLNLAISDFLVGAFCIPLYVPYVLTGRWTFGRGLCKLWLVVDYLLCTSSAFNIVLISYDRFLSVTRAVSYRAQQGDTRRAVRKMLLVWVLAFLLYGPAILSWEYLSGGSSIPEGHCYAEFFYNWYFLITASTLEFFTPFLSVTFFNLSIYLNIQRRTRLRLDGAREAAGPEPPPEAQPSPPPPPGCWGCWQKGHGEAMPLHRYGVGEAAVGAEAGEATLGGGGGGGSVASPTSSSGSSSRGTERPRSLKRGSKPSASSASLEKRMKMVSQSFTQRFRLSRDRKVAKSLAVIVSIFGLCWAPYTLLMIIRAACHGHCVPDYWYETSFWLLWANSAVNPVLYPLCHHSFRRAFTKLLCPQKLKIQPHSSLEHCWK
Give bare numbers.

For orientation, consider the following solved cases.
1) CNCc1cc(C#CCCN(C)C2CC2)ccc1Oc1ccc(SC)cc1    9.10
2) CNCc1cc(C#CCCN2CCOCC2)ccc1Oc1ccc(C(F)(F)F)cc1    7.90

# map each compound to its pA2
1. CNCc1cc(C#CCCN2CCOCC2)ccc1Oc1ccc(F)cc1Cl
2. CNCc1cc(C#CCCN2CCC(F)CC2)ccc1Oc1ccc(SC)cc1
3. CNCc1cc(C#CCCN2CCOCC2)ccc1Oc1ccc(Cl)c(C(F)(F)F)c1
4. CNCc1cc(C#CCCN2CCOCC2)ccc1Oc1cccc(Cl)c1
5. CNCc1cc(C#CCCN2CCOCC2)ccc1Oc1cccc(F)c1

1: 8.78; 2: 8.12; 3: 7.89; 4: 8.58; 5: 8.45

* * *

Assay system human H3 receptor (Homo sapiens); read-out recorded as Ki.
Give bare numbers, in µM.

A selection of reference data follows.
1. CNCc1cc(C#CCCN2CCOCC2)ccc1Oc1cccnc1    0.002
2. CNCc1cc(C#CCCN2CCC(F)CC2)ccc1Oc1ccc(Cl)c(Cl)c1    0.014
3. Clc1ccc(Oc2ccc(C#CCCN3CCOCC3)cc2CNC2CC2)cc1    0.01

Turning to the following compound.
Find the recorded Ki belonging to CNCc1ccc(C#CCCN2CCOCC2)cc1Oc1ccc(SC)cc1 and report it.
0.423

* * *

target: human SERT (Homo sapiens); construct: expressed in transfected cells; host or cells: HEK293 membranes; assay: Human SERT 3H-citalopram binding; conditions: HEK293 membranes expressing the human SERT, rt 1 h
Sequence (P31645 whole entry): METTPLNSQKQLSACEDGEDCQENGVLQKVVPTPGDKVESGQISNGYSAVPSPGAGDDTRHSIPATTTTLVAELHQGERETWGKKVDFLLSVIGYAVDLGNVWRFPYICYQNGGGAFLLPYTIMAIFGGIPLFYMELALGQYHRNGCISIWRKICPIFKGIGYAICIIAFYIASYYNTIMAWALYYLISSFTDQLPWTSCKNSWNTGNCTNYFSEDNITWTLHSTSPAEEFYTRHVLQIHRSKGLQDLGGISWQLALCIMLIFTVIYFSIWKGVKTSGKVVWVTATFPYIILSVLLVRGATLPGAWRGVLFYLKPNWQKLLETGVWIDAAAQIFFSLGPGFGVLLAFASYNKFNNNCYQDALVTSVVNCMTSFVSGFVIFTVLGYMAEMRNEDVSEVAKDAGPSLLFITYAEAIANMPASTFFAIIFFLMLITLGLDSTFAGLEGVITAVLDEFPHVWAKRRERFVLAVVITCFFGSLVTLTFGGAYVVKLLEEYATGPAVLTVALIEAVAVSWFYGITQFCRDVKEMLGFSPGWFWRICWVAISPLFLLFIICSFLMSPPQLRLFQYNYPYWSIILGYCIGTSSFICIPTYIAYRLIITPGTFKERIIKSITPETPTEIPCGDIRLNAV
Kindly state pKi for each of the entries shown.
Give bare numbers, as −log10 of the molar value.

1) CNCc1cc(C#CCCN(C)C2CC2)ccc1Oc1ccc(SC)cc1    8.96

# batch: return pKi for each of the 2 molecules below
1. CNCc1cc(C#CCCN2CCOCC2)ccc1Oc1cccc(F)c1
2. CNCc1cc(C#CCCN2CCOCC2)ccc1Oc1ccc(C(F)(F)F)cc1

1: 7.62; 2: 8.57
